PROCEDURE_TEXT: probe aEGFR binding to arrayed compounds – biochemical, biotinylated probe, 635/667 nm fluorescence, primary screen (AID 1097);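 also: probe is a biotinylated anti-EGFR antibody binding compounds printed on slides; score combines fluorescence near 667 nm and signal to noise of each spot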
EXPERIMENTAL_SETUP: small-molecule microarray, higher = more signal
Reported composite z-score values follow for various compounds
MEASUREMENT_KIND: composite z-score

| COMPOUND | RESULT |
| --- | --- |
| NC(=O)NCC#Cc1ccc2c(c1)[C@]1(C(=O)N2)[C@H](c2ccc(O)cc2)N2[C@H](c3ccccc3)[C@H](c3ccccc3)OC(=O)[C@H]2[C@@H]1C(=O)NC[C@H](O)c1ccccc1 | -0.276 |
| COC(=O)[C@]1(Cc2ccccc2CN=[N+]=[N-])N=C(c2ccc(OCCCO)cc2)O[C@@H]1c1ccccc1CN=[N+]=[N-] | -0.0828 |
| CN(C)C(=O)[C@@]1(CCC(=O)OC(C)(C)C)COC(c2ccc(OCCCO)cc2)=N1 | -0.122 |
| Cc1ccc(S[C@]2(C(=O)NCc3ccccc3)CC(=O)N(C3Cc4ccccc4C3)[C@@H]2c2ccc(CO)cc2I)cc1 | -0.135 |
| CCCCC(O)C1C=CC2C(=O)N(Cc3ccccc3)C(=O)C2N1n1cnnc1 (stereo not drawn) | 0.035 |
| COc1ccc([Si](C)(C)[C@@H]2[C@@H](CC(=O)N(CCO)Cc3ccccc3)O[C@]3(C(=O)N(C)c4c(Br)cc(C)cc43)[C@H]2C)cc1 | -0.0978 |
| COCCOC(=O)N1C(=O)[C@@]2(c3cc(C#CC4(O)CCCCCC4)ccc31)[C@H](C(=O)NC[C@H](O)c1ccccc1)[C@H]1C(=O)O[C@H](c3ccccc3)[C@H](c3ccccc3)N1[C@@H]2c1ccc(OCCO)cc1 | -0.0978 |
| COC(=O)c1c(CC[C@@H](CO)NC(=O)N[C@@H](C)Cn2cc(C3(O)CCCC3)nn2)oc(C(C)=O)c1C(=O)OC | -0.0237 |
| C=C(COC)C(=O)CC[C@H](OC(=O)c1ccccc1-c1ccccc1C(=O)O)c1ccc(CO)o1 | -0.17 |
| CCOC(=O)C[C@H]1[C@H](OC(=O)c2ccccc2-c2ccccc2)[C@@H](NC(=O)c2ccccc2)c2cc(OCCCO)ccc2N1C(=O)Cc1ccc(OC)cc1 | -0.108 |
| CCOC(=O)C1=CCC(c2cccc(Cl)c2)O1 (stereo not drawn) | -0.0953 |
| C[C@H]1NC(=O)C([C@@H](C)OCc2ccccc2)NC(=O)[C@@]23C(=O)N[C@@H](Cc4ccccc4)C2[C@H](C)[C@@]2(C)O[C@H]2C3/C=C/CC/C=C/CNC1=O (stereo partly drawn) | 0.0143 |
| C=CCC(OC(C)=O)[C@@H]1[C@@H](N(Cc2ccc(-c3ccccc3)cc2)C(=O)c2cccc3ccccc23)c2cc(OCCCO)ccc2N1C(=O)c1ccc2ccccc2n1 (stereo partly drawn) | 0.045 |
| COCCCNC(=O)[C@@]1(Cc2ccccc2I)c2ccccc2C(=O)N(Cc2ccccc2Cl)[C@H]1c1ccc(CO)cc1 | -0.0429 |
| COc1cc2c(cc1OC)CN(C(=O)[C@@H]1[C@H]3C(=O)O[C@H](c4ccccc4)[C@H](c4ccccc4)N3[C@H](c3ccc(OCCO)cc3)[C@@]13C(=O)Nc1ccc(C#CCCO)cc13)CC2 | 0.276 |
| CO[C@H]1O[C@H](CO)[C@@H](OC(=O)Nc2cccc(F)c2)[C@H](OC(=O)Nc2ccc3c(c2)OCO3)[C@H]1OC(=O)Nc1ccc2c(c1)OCO2 | -0.142 |
| O=C(C=C(CC(O)c1cccc(Cl)c1)OCCF)OCCF (stereo not drawn) | -0.128 |
| O=C1NC(=O)C2C1C=CC(C(O)CCc1ccccc1)N2Nc1ccccn1 (stereo not drawn) | -0.0659 |
| C[C@]12C(=O)N(CCCCCO)[C@@H]3C(=O)N(c4ccc(Cl)cc4)CC=CC31O[C@@H]1/C=C\CCCOC(=O)C12 (stereo partly drawn) | -0.172 |
| CC(C)CNC(=O)[C@@]1(c2ccc([N+](=O)[O-])cc2)CC(=O)N(C(C)C)[C@@H]1c1ccc(CO)cc1 | -0.13 |
| Cc1ccccc1C(O)C1C=CC2C(=O)N(C)C(=O)C2N1Nc1ccc([N+](=O)[O-])cc1[N+](=O)[O-] (stereo not drawn) | 0.0801 |
| COCCCNC(=O)[C@@H]1c2ccccc2C(=O)N(Cc2cc(F)cc(C(F)(F)F)c2)[C@H]1c1ccc(CO)cc1 | -0.207 |
| CN(C)CCCCCCNC(=O)[C@@H]1C[C@@H]2C(=O)NCC(=O)N2[C@@H]1c1ccc(O)cc1 | -0.0304 |
| COc1cc(C(O)C2C=CC3C(=O)NC(=O)C3N2Nc2ccc(Cl)cc2Cl)cc(OC)c1OC (stereo not drawn) | 0.114 |
| COC(=O)[C@@]1(Cc2ccc(F)cc2)[C@H]2c3cc(C(=O)N(C)C)n(Cc4ccc(C)c(F)c4F)c3C[C@H]2CN1C(=O)c1ccccc1 | 0.856 |
| CCN(CC)c1ccc(N2CC=CC34O[C@@H]5/C=C\CCCOC(=O)C5[C@H]3C(=O)N(CCCCCCO)[C@@H]4C2=O)cc1 (stereo partly drawn) | -0.197 |
| COC(=O)[C@@]1(Cc2ccc(F)cc2)[C@@H]2[C@@H](CC(=O)[C@H]2CC(=O)C(=O)N2CCCC2)CN1C(=O)c1ccccc1 | 0.147 |
| COc1ccc([Si](C)(C)[C@@H]2[C@@H](CCO)O[C@]3(C(=O)N(Cc4cccc(N5C(=O)COc6ccccc65)c4)c4ccccc43)[C@H]2C)cc1 | -0.0864 |
